Each recorded value in this set is attributed to ChEMBL document CHEMBL4673246.

Record form. Attribute: IC50. Fill in for each entry.
- test_protocol: Inhibition of Pseudomonas aeruginosa ATCC 33347 LecA expressed in Escherichia coli BL21(DE3) cells incubated for 30 to 60 mins by (N-(fluorescein-5-yl)-N'-(beta-D-(m-aminophenyl)-galactopyranosyl)thiocarbamide) reporter based fluorescence polarization assay
Answer with the number, then the unit.

Examples with their reported IC50 follow.
INSERT INTO measurements (structure_string, result) VALUES
  ('[N-]=[N+]=NCCCC(=O)Nc1ccc(S[C@@H]2O[C@H](CO)[C@H](O)[C@H](O)[C@H]2O)cc1', '31.1 µM'),
  ('O=C(Cn1cc(CN2CCN(c3cc4c(cc3F)c(=O)c(C(=O)O)cn4C3CC3)CC2)nn1)Nc1ccc(S[C@@H]2O[C@H](CO)[C@H](O)[C@H](O)[C@H]2O)cc1', '30.4 µM'),
  ('O=C(CCCn1cc(CCN2CCN(c3cc4c(cc3F)c(=O)c(C(=O)O)cn4C3CC3)CC2)nn1)Nc1ccc(S[C@@H]2O[C@H](CO)[C@H](O)[C@H](O)[C@H]2O)cc1', '29.3 µM');

// for each compound in input: emit IC50
1. O=C(CCn1cc(CN2CCN(c3cc4c(cc3F)c(=O)c(C(=O)O)cn4C3CC3)CC2)nn1)Nc1ccc(S[C@@H]2O[C@H](CO)[C@H](O)[C@H](O)[C@H]2O)cc1
2. [N-]=[N+]=NCCCCC(=O)Nc1ccc(S[C@@H]2O[C@H](CO)[C@H](O)[C@H](O)[C@H]2O)cc1
3. [N-]=[N+]=NCC(=O)Nc1ccc(S[C@@H]2O[C@H](CO)[C@H](O)[C@H](O)[C@H]2O)cc1
4. O=C(Cn1cc(CCN2CCN(c3cc4c(cc3F)c(=O)c(C(=O)O)cn4C3CC3)CC2)nn1)Nc1ccc(S[C@@H]2O[C@H](CO)[C@H](O)[C@H](O)[C@H]2O)cc1
5. [N-]=[N+]=NCCC(=O)Nc1ccc(S[C@@H]2O[C@H](CO)[C@H](O)[C@H](O)[C@H]2O)cc1
6. O=C(CCCCn1cc(CN2CCN(c3cc4c(cc3F)c(=O)c(C(=O)O)cn4C3CC3)CC2)nn1)Nc1ccc(S[C@@H]2O[C@H](CO)[C@H](O)[C@H](O)[C@H]2O)cc1

A.
32.2 µM
29.9 µM
31.7 µM
21.6 µM
30.9 µM
28.3 µM

Please go through the list and note IC50 for each compound.
1. O=C(CCCn1cc(CN2CCN(c3cc4c(cc3F)c(=O)c(C(=O)O)cn4C3CC3)CC2)nn1)Nc1ccc(S[C@@H]2O[C@H](CO)[C@H](O)[C@H](O)[C@H]2O)cc1
2. O=[N+]([O-])c1ccc(O[C@@H]2O[C@H](CO)[C@H](O)[C@H](O)[C@H]2O)cc1
3. CO[C@H]1O[C@H](CO)[C@H](O)[C@H](O)[C@H]1O
4. O=C(CCn1cc(CCN2CCN(c3cc4c(cc3F)c(=O)c(C(=O)O)cn4C3CC3)CC2)nn1)Nc1ccc(S[C@@H]2O[C@H](CO)[C@H](O)[C@H](O)[C@H]2O)cc1
5. O=C(CCCCn1cc(CCN2CCN(c3cc4c(cc3F)c(=O)c(C(=O)O)cn4C3CC3)CC2)nn1)Nc1ccc(S[C@@H]2O[C@H](CO)[C@H](O)[C@H](O)[C@H]2O)cc1

A.
27.3 µM
52.7 µM
71.7 µM
28 µM
26.2 µM
